Target: PPARδ (Homo sapiens, UniProt Q03181)
Construct: expressed in transfected cells; host or cells: PathHunter NHR cell lines
Sequence (Q03181 1-441): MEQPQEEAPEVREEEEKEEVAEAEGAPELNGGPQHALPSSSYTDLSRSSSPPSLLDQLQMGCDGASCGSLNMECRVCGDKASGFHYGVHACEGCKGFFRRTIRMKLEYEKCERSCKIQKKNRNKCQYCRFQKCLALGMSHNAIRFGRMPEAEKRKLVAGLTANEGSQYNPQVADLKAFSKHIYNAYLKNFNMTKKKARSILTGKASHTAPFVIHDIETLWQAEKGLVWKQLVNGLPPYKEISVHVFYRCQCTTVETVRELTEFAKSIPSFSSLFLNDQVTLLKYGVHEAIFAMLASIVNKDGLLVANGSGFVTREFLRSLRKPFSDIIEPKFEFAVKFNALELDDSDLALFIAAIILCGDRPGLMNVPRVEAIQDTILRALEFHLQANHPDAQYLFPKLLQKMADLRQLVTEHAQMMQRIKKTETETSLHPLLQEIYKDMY
Assay: Nuclear Hormone Receptor (NHR) protein interaction assay (PathHunter), agonist format
Format: cell-based
REPORTED_ENDPOINT: EC50

Name the reported EC50 value associated with the compound CC(C)N(Cc1ccccc1OCCCCCC(=O)O)C(=O)c1ccc(OC2CC2)cc1 [compound 134]
> 10 µM

Name the reported EC50 value associated with the compound CC(C)N(C(=O)Cc1ccccc1OCCCCCC(=O)O)c1ccc(-c2ccco2)cc1 [compound 158]
> 10 µM

Name the reported EC50 value associated with the compound CC(C)N(Cc1ccccc1OCCCCCC(=O)O)S(=O)(=O)c1ccc(-c2ccco2)cc1 [compound 152]
> 10 µM
